# EXPERIMENTAL TARGET: T1, human CD3ε/δ-Fc fusion protein (soluble recombinant CD3ε/δ complex) (human, UniProt P04234 22-105)
# T1 construct: also called huCD3ε/δ; huCD3; not shown: hinge, CH2, CH3 of human IgG with tag
# T1 sequence (chain, as listed by the source mutant, chain 1 of 2): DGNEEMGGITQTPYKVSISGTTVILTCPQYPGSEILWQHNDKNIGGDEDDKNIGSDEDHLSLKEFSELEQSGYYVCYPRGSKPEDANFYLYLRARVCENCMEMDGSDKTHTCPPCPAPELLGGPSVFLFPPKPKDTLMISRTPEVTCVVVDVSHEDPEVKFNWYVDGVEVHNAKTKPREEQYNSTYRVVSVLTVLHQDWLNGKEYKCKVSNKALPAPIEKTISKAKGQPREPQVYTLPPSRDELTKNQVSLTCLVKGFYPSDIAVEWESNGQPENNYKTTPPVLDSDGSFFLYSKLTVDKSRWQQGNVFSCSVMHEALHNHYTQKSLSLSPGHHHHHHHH
# T1 sequence (P04234 22-105, stated change not applied, chain 2 of 2): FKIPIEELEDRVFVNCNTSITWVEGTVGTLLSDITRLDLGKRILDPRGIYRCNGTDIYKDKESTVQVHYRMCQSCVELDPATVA
# TEST: SPR Biacore, Fab
RECORDED METRIC: kon (M⁻¹ s⁻¹)
Answers are plain numbers, in M⁻¹ s⁻¹.

- BINDER: "20G6-F3 Fab (Fab, V domains shown, also called BDW-20G6-F3) VH: EVQLVETGGSLVQPGKSLKLTCATSGFTFTKAWMHWVRQSPEKQLEWVAQIKDKSNSYATYYAESVKGRFTISRDDSKSTIYLQMNSLKEEDTAIYYCRGVYYALSPFDYWGQGVMVTVSS VL: DVVMTQTPVSLSVSLGGQVSISCRSSQSLVHNNGNTYLSWYLQKPGQSPQSLIYKVSNRFSGFSDRFSGSGSGTDFTLKISRVDPDDLGVYYCGQGTQYPFTFGSGTKLEIKR"
  RESULT UNITS: "M⁻¹ s⁻¹"
  READOUT VALUE: 35000
- BINDER: "18F5-H10 Fab (Fab, V domains shown, also called BDX-18F5-H10) VH: EVQVVETGGSLVQPGKSLKLTCATSGFTFTNAWMHWVRRSPEKQLEWVAQIKDKSNNYATYYAESVKGRFTISRDDSKSSIYLQMNSLKEEDTAIYYCRYVHYRFAYALDAWGRGTSVSVSS VL: DVLMTQTPVSLSVSLGGQVSISCRSSQSLVHTNGNTYLSWYLQKPGQSPQLLIYKVSNRLSGISDRFSGSGSGTDFTLKISRVEPDDLGVYYCGQGTHYPFTFGAGTKLELKR"
  RESULT UNITS: "M⁻¹ s⁻¹"
  READOUT VALUE: 200000

Moving on to another binder below.
Prompt line: State the recorded kon for this entry: 4E7-C9 Fab (Fab, V domains shown, also called BDX-4E7-C9) VH: EVQVVETGGSLVQPGKSLKLTCATSGFTFSNAWMHWVRQSPEKQLEWVAQIKDKSNNYATYYAESLKGRFTISRDDPKRSIYLQMNSLREEDTAIYYCRYVHYGIGYAMDAWGQGTSVTVSS VL: DVVMTQTPVSLSVSLGGQVSISCRSSQSLEHNNGNTYLSWYLQKPGQSPQPLIYKVSNRFSGISDRFSGSGSGTDFTLKISRVEPDDLGVYYCGQGTQYPFTFGPGTKLELKR
Response line: 89000
